System: human rhinovirus type 1B (HRV 1B, B632)
Experiment: Anti-rhinovirus activity (MTT), HRV1B
Type: cell-based
Settings: HeLa (Ohio strain) cells, MTT method, 33° C.
readout-name: IC50 HRV1B (µg/mL)
Give your result in µg/mL as a bare value.

# input GET /values?readout=IC50 HRV1B&item= CC(C)c1ccc2c(c1)c(=O)cc(-c1ccc(Cl)c(Cl)c1)n2C [Compound A61]
# output 0.64

# input GET /values?readout=IC50 HRV1B&item= COc1ccc(-c2c(C)c(=O)c3c(C)c(OCC(C)C)ccc3n2C)cc1C [Compound A190]
# output 2.0

# input GET /values?readout=IC50 HRV1B&item= COc1ccc(-c2cc(=O)c3cc(C(C)C)ccc3n2C)cc1C [Compound A97]
# output 0.58

# input GET /values?readout=IC50 HRV1B&item= CCn1c2c(c(=O)c3cc(C(C)C)ccc31)Cc1cc(OC)ccc1-2 [Compound B10]
# output 0.25

# input GET /values?readout=IC50 HRV1B&item= Cc1cc(-c2cc(=O)c3cc(C(C)C)ccc3n2C)ccc1OC(C)C [Compound A100]
# output 0.85

# input GET /values?readout=IC50 HRV1B&item= Cc1c(OCC(C)C)ccc2c1c(=O)cc(-c1ccccc1)n2C [Compound A186]
# output 1.1

# input GET /values?readout=IC50 HRV1B&item= CCCOc1ccc2c(c1)c(=O)c(C)c(-c1ccccc1)n2CC [Compound A32]
# output 1.0

# input GET /values?readout=IC50 HRV1B&item= CCn1c2c(c(=O)c3cc(C(C)C)ccc31)Cc1ccccc1-2.Cl [Compound B3]
# output 0.30

# input GET /values?readout=IC50 HRV1B&item= CCn1c2c(c(=O)c3cc(C(C)C)ccc31)C(=NOC)c1ccccc1-2 [Compound C49]
# output 1.9

# input GET /values?readout=IC50 HRV1B&item= CCn1c(-c2ccccc2)c(C)c(=O)c2c(C)c(OCC(C)C)ccc21 [Compound A188]
# output 0.81

# input GET /values?readout=IC50 HRV1B&item= Cc1c(-c2ccccc2)n(-c2ccccc2F)c2ccc(C(C)C)cc2c1=O [Compound A321]
# output 0.60

# input GET /values?readout=IC50 HRV1B&item= COc1c(OCC(C)C)ccc2c1c(=O)c(C)c(-c1ccccc1)n2C [Compound A196]
# output 5.9

# input GET /values?readout=IC50 HRV1B&item= CCn1c2c(c(=O)c3cc(C(C)C)ccc31)Cc1cc(OC)c(OC)cc1-2 [Compound B22]
# output 0.44

# input GET /values?readout=IC50 HRV1B&item= Cc1cc2c(c(C)c1OCC(C)C)c(=O)cc(-c1ccccc1)n2C [Compound A285]
# output 0.68

# input GET /values?readout=IC50 HRV1B&item= CCn1c(-c2cccc(F)c2)c(C)c(=O)c2cc(C(C)C)ccc21 [Compound A60]
# output 0.59

# input GET /values?readout=IC50 HRV1B&item= COc1ccc2c(c1)Cc1c-2n(C)c2ccc(CC(C)C)cc2c1=O [Compound B11]
# output 0.36

# input GET /values?readout=IC50 HRV1B&item= CCn1c(-c2ccccc2)c(C)c(=O)c2cc(N3CCOCC3)ccc21 [Compound A169]
# output 8.2

# input GET /values?readout=IC50 HRV1B&item= CCn1c(-c2ccccc2)c(C)c(=O)c2cc(OCC(C)C)c(C)cc21 [Compound A235]
# output 0.75

# input GET /values?readout=IC50 HRV1B&item= CCc1ccc2c(c1)Cc1c-2n(C)c2ccc(C(C)C)cc2c1=O [Compound B8]
# output 0.24

# input GET /values?readout=IC50 HRV1B&item= CCn1c(-c2cccc(C)c2)c(C)c(=O)c2c(Cl)c(OCC(C)C)ccc21 [Compound A181]
# output 1.6

# input GET /values?readout=IC50 HRV1B&item= Cc1c(-c2ccccc2)n(C)c2ccc(OCC(C)C)c(N)c2c1=O.Cl [Compound A194]
# output 0.05

# input GET /values?readout=IC50 HRV1B&item= CCn1c(-c2ccc(C)s2)cc(=O)c2cc(C(C)C)ccc21 [Compound A315]
# output 0.52

# input GET /values?readout=IC50 HRV1B&item= Cc1c(-c2ccccc2)n(C)c2cc(C(C)C)c(OC(C)C)cc2c1=O [Compound A258]
# output 0.62

# input GET /values?readout=IC50 HRV1B&item= CCn1c2c(c(=O)c3cc(C(C)C)ccc31)Cc1cc(OC)c(C)cc1-2 [Compound B20]
# output 0.23

# input GET /values?readout=IC50 HRV1B&item= Cc1cc2c(c(C)c1OCC(C)C)c(=O)c(C)c(-c1ccccc1)n2C [Compound A286]
# output 0.87

# input GET /values?readout=IC50 HRV1B&item= CCn1c2c(c(=O)c3cc(CC(C)C)ccc31)Cc1cc(OC)ccc1-2 [Compound B15]
# output 0.36

# input GET /values?readout=IC50 HRV1B&item= CCOc1ccc(-c2cc(=O)c3cc(C(C)C)ccc3n2C)cc1C [Compound A99]
# output 0.63

# input GET /values?readout=IC50 HRV1B&item= Cc1c(-c2ccccc2)n(C)c2ccc(NCC(C)C)cc2c1=O [Compound A157]
# output 1.0

# input GET /values?readout=IC50 HRV1B&item= CCn1c2c(c(=O)c3cc(CC(C)C)ccc31)Cc1cc(OC)ccc1-2 [Compound B12]
# output 0.25

# input GET /values?readout=IC50 HRV1B&item= Cc1ccc(-c2cc(=O)c3cc(C(C)C)ccc3n2C)s1 [Compound A314]
# output 0.56

# input GET /values?readout=IC50 HRV1B&item= CCCc1ccc2c(c1)c(=O)c(C)c(-c1ccccc1)n2CC [Compound A30]
# output 1.6

# input GET /values?readout=IC50 HRV1B&item= CCc1ccc2c(c1)Cc1c-2n(CC)c2ccc(C(C)C)cc2c1=O [Compound B9]
# output 0.25

# input GET /values?readout=IC50 HRV1B&item= CCn1c(-c2ccccc2)c(C)c(=O)c2cc(NCC(C)C)ccc21.Cl [Compound A160]
# output 0.73

# input GET /values?readout=IC50 HRV1B&item= CCn1c(-c2cccs2)c(C)c(=O)c2cc(C(C)C)ccc21 [Compound A311]
# output 1.0

# input GET /values?readout=IC50 HRV1B&item= CCn1c(-c2ccsc2)cc(=O)c2cc(C(C)C)ccc21 [Compound A313]
# output 0.90
